# assay overview: qHTS Assay for Identifying Gametocytocidal Compounds (AID 743244);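 further: on the % scale 0 is the no-effect control and ±100 the full control effect; actives lower the fluorescent signal which means gametocytes are killed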
# condition set: P. falciparum 3D7 stage III-V gametocytes, alamarBlue, 72 h; stronger effect = lower value
Inconclusive results are not listed.
measurement type: max response (%)

compound | value unit | readout number
CO/N=C(/C(=O)N[C@@H]1C(=O)N2C(C(=O)O)=C(Cn3nnc(C)n3)CS[C@H]12)c1csc(N)n1 | % | -11.7
C[C@H]1C[C@@H]2[C@H]([C@@H](O)C[C@@]3(C)[C@H]2CC[C@]3(O)C(=O)CO)[C@@]2(C)C=CC(=O)C=C12 | % | -12.4
OCCOCCN1CCN(C(c2ccccc2)c2ccc(Cl)cc2)CC1 (stereo unspecified) | % | -10.6
C[C@@]12CCC[C@H]1[C@@H]1CC[C@H]3C[C@@H](O)CC[C@]3(C)[C@H]1CC2 | % | 4.41
O=C(Oc1ccccc1)c1ccccc1O | % | 7.75
O=C(NN1CCCC1)NS(=O)(=O)c1ccc(Cl)cc1 | % | 0.581
CSCC[C@H](NC(=O)[C@H](Cc1c[nH]c2ccccc12)NC(=O)CCNC(=O)OC(C)(C)C)C(=O)N[C@@H](CC(=O)O)C(=O)N[C@@H](Cc1ccccc1)C(N)=O | % | -18.5
CCOC(=O)OCC/C(SC(=O)OCC)=C(\C)N(C=O)Cc1cnc(C)nc1N | % | 11.2
Cc1cccc(N(C)C(=S)Oc2ccc3c(c2)CCC3)c1 | % | 14.9
CC(C)C(C)(C)C(C)(C)C(C)(C)S | % | 40.1
Nc1c[n+](N2CCOCC2)no1 | % | 2.15

###

# assay overview: qHTS of pediatric cancer cell lines to identify multiple opportunities for drug repurposing: Primary screen for OHS-50 cells (AID 1347103); further: nearly all actives have a fitted effect of over 40% in size
# condition set: OHS-50 osteosarcoma viability, CellTiter-Glo luminescence, 48 h; series mostly up to 57.3 µM
Results filed as inconclusive are left out. The source made the active and inactive calls. Calls come from the whole dose curve; as a rule, active = well fitted cell-killing curve with a large enough effect; inconclusive = small, poorly fitted or top-dose-only effect; inactive = no such curve, though single readings can be large or run the other way.
Possible outcomes: active, inactive

compound | class name
O=C(O)c1ccccc1S | inactive
CCCCC(O)/C=C(C)/C=C/C=C/C(=O)N1CCCC1=O (configuration not stated) | inactive
Nc1c(I)cc(I)c(C(=O)N(CCC(=O)O)c2ccccc2)c1I | inactive
CCN(CC)CC(=O)Nc1c(C)cccc1C(=O)OC | inactive
CC1(C)O[C@@H]2C[C@H]3[C@@H]4CCC5=CC(=O)C=C[C@]5(C)[C@@]4(F)[C@@H](O)C[C@]3(C)[C@]2(C(=O)CO)O1 | inactive
CCCC(=O)Nc1ccc(O)c(C(C)=O)c1 | inactive
O=C(O)C1CCC1 | inactive
CCCC(CCC)(C(=O)OCC)C(=O)OCC | inactive
Cc1cc(OCCOCC[N+](C)(C)Cc2ccccc2)ccc1C(C)(C)CC(C)(C)C | active
CN1[C@@H]2CC[C@H]1CC(NC(=O)n1c(=O)[nH]c3ccccc31)C2 (some centres not stated) | inactive
CCOc1ccc(NS(=O)(=O)c2ccc(N)cc2)nn1 | inactive
CC(C)=CCC/C(C)=C/CC/C(C)=C/CCC(=O)OC/C=C(\C)CCC=C(C)C | inactive
C/C(=N\O)[C@@H](C)NCC(C)(C)CN[C@H](C)/C(C)=N/O | inactive
COC(=O)c1cc(Cl)ccc1OC | inactive
NC(=O)C1(N2CCCCC2)CCN(CCCN2c3ccccc3CCc3ccc(Cl)cc32)CC1 | active
COc1ccc(-n2nc(CCC(=O)N(C)O)cc2-c2ccc(Cl)cc2)cc1 | active
OCc1c[nH]c2ccccc12 | inactive
CN(C)CCOC1=Cc2ccccc2Sc2ccc(Cl)cc21 | active
COC(=O)/C=C\C(=O)OC | inactive
O=C(O)Cc1ccccc1Oc1ccc(Cl)cc1Cl | inactive
Cc1cc(=O)oc2cc(O[C@@H]3SC[C@@H](O)[C@H](O)[C@H]3O)ccc12 | inactive
Nc1nc2ccccc2n1Cc1ccc(F)cc1 | active
CC(C)CCCC(C)NCCC(C)C (configuration not stated) | inactive
Cc1ccccc1C(=O)N1CC/C(=N\OS(=O)(=O)O)c2ccc(Cl)cc21 | inactive
COC(=O)c1cc(Cl)ccc1NS(=O)(=O)C(F)(F)F | inactive
CCc1cccc2c(CCO)c[nH]c12 | inactive
Cc1onc(-c2c(Cl)cccc2Cl)c1C(=O)Cl | inactive
C[N+]1(CC2COC(c3ccccc3)(c3ccccc3)O2)CCCCC1 (configuration not stated) | inactive
CO/N=C(/C(=O)N[C@@H]1C(=O)N2C(C(=O)OCOC(=O)C(C)(C)C)=C(C)CS[C@H]12)c1csc(N)n1 | inactive
Oc1ccccc1 | inactive
Cc1cc(O)c2c(O)c3c(O)cccc3cc2c1 | inactive
Nc1c2ccccc2nc2ccccc12 | active
